Reference for the values: ChEMBL document CHEMBL4513216

PROTOCOL TEXT: Toxicity liver stage against HepG2, at 10uM
Assay type: cell-based
Parameters: test concentration 10 uM, cell line HepG2-A16-CD81EGFP
SETTINGS: human, HepG2-A16-CD81EGFP cells; read-out: INHIBITION
PROPERTY: cytotoxicity at 10 µM (%)

INSERT INTO results (compound, reading_unit, observed) VALUES
  ('CC(C)NC(=O)NCc1nnc2n1C(C(=O)N(C)C)CC2 (stereo not drawn)', '%', 5.45),
  ('O[C@H]1[C@H](n2cc(-c3ccccn3)nn2)c2ccccc2C12CCNCC2', '%', -11.5),
  ('O=C(NCCCN1CCOCC1)C(OC1CCCC1)c1ccccc1 (stereo not drawn)', '%', -5.95),
  ('CNc1c(NCc2ccco2)c(=O)c1=O', '%', -10.6),
  ('CCc1ccc(CNC(=O)c2ccc(N3CCOC3=O)cc2)s1', '%', 22.5),
  ('COc1ccc(Oc2ncccc2NC(=O)N2CC[C@H](O)C2)cc1', '%', 1.7),
  ('O=C(NCc1ccccn1)C1=NN(c2ccccc2)C(=O)CN1', '%', -0.855),
  ('Cc1cccc2c1ccn2CC(=O)NC[C@@H]1CCCN2CCCC[C@H]12', '%', 3.14),
  ('COCCOCC(=O)N1C[C@@H]2CC[C@H](Oc3ccccc3)[C@@H]2C1', '%', -27.9),
  ('O=C(c1ccc2c(c1)COC2)N1CCN(CCO)CC1', '%', -16.5),
  ('Fc1ccccc1CN1CCCN(c2ncnc3[nH]ccc23)CC1', '%', -5.86),
  ('Cn1cc(CN2CCCCC2c2ccc(-c3cnn(C)c3)nc2)cn1 (stereo not drawn)', '%', 9.25),
  ('COc1coc(CN2CCCC(CCc3ccc(F)c(F)c3)C2)cc1=O (stereo not drawn)', '%', 1.95),
  ('CC(Cn1ccnc1)NC1CCN(Cc2cccc(O)c2)CC1 (stereo not drawn)', '%', -4.21),
  ('CS(=O)(=O)c1cc(Cl)cnc1C1CCCN(C(=O)C2CCOCC2)C1 (stereo not drawn)', '%', 4.34),
  ('COc1ccccc1OCCN(C)c1cc(C)nc(N)n1', '%', 10.4),
  ('CC(C)c1ccc(/C=C/CC(=O)NC2CCN(C(N)=O)CC2)cc1', '%', 7.1),
  ('Cc1cnn(CCCn2c(C)cc(C(F)(F)F)cc2=O)c1', '%', 0.529),
  ('COc1ccc(CCN2CCCC2Cn2nc(C)nc2C)cc1 (stereo not drawn)', '%', -7.16),
  ('c1ccc(-c2cc(CN3CCc4cncnc4C3)on2)cc1', '%', 11.3),
  ('COCC(=O)N1CCCC1c1nccnc1Nc1ncccn1 (stereo not drawn)', '%', -2.69),
  ('Cn1ccnc1CN1CCN(CC(O)c2ccccc2)CC1 (stereo not drawn)', '%', -11.4),
  ('Cc1nn(CC(=O)Nc2ccon2)cc1Br', '%', 4.95),
  ('Cc1nc(NCC23CCCN2CCC3)cc(C2CCCNC2)n1 (stereo not drawn)', '%', 7.54),
  ('CN(C)Cc1ccnc(C2CN(CCc3ccccc3)CCO2)n1 (stereo not drawn)', '%', -16.5),
  ('Fc1ccc(NCc2ncc[nH]2)cc1Br', '%', 3.76),
  ('Cc1oncc1C(=O)N1CCOCC2(CCN(c3ccccn3)C2)C1 (stereo not drawn)', '%', -68.3),
  ('CC(C)Nc1ccc2nc(C3CCN(C(C)C)CC3)nn2c1', '%', -20.4),
  ('Cn1cccc1CN1CCC2(CCCN(C(=O)Cc3cccnc3)C2)C1 (stereo not drawn)', '%', 7.17),
  ('O=C(c1cccs1)N1CCN(C(=O)c2ncoc2-c2ccco2)CC1', '%', 3.82),
  ('c1nc(CCC2CCCCN2)cc(N2CCCC2)n1 (stereo not drawn)', '%', -21.6),
  ('Cc1cn2c(CN(C)C(=O)c3cnc(N)c(Cl)c3)c(C)nc2s1', '%', -8.46),
  ('CNS(=O)(=O)CC(=O)NC(C)Cc1ccc(Br)cc1 (stereo not drawn)', '%', -10.9),
  ('O=C(Nc1nc2c(s1)CN(C(=O)NCc1cccs1)CC2)C1CC1', '%', -0.707),
  ('CCn1cc(CN2CCN(CC(O)c3cc(C)ccc3C)CC2)c(C)n1 (stereo not drawn)', '%', 3.41),
  ('CC(C)[C@H]1CN(Cc2ccccn2)C[C@@H]1NC(=O)CCS(C)(=O)=O', '%', -7.04),
  ('O=C1NCCCCC1NC(=O)C1(Oc2ccc(Cl)cc2)CCNCC1 (stereo not drawn)', '%', -6.21),
  ('CCC(CC)Cn1ncc(N2CCOCC2)cc1=O', '%', -3.46),
  ('O=C(CN1CCc2cncnc2C1)NCCOc1ccccc1', '%', -6.78),
  ('CCCN(CCC)CCNc1c(-c2ccccc2)c(=O)c1=O', '%', -82.1),
  ('O=C1Nc2ccccc2C12CCN(Cc1ccccn1)CC2', '%', -3.45),
  ('CC(CS(C)(=O)=O)N(C)C(=O)NCCCc1ccc(Cl)cc1 (stereo not drawn)', '%', 1.8),
  ('CCN(CC)C1CCN(C(=O)NCc2cccc(-n3ccnc3)c2)C1 (stereo not drawn)', '%', -4.45),
  ('Cc1ccc(Oc2ncccc2CNS(=O)(=O)N2CCOCC2)cn1', '%', 9.83),
  ('CC1(C)CC(=O)c2cnc3nc(N4CCCC4)[nH]c(=O)c3c2C1', '%', -2),
  ('Cc1ccoc1C(=O)NCCS(=O)(=O)N1CCSCC1', '%', -2.65),
  ('COCC1CN(Cc2cc(C)on2)Cc2cn(CC3CCCC3)nc21 (stereo not drawn)', '%', 6.4),
  ('Cn1c(Nc2ccc(F)cc2)c(C#N)c(=O)n(C)c1=O', '%', 1.77);
